B1: KCNAB2 (parent)
chain: SSIIHEIDSILGNKPYSKKDYRS

# Variants of: B1
# PROTOCOL_TEXT: protein stability index of a GFP-peptide fusion (GPS, HEK-293T) (PSI 1-6); higher = more stable;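 further: lentivirally expressed fusions sorted by FACS into six bins by GFP to DsRed ratio, PSI derived from sequencing read proportions per bin multiplied by bin number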
# EXPERIMENTAL_PARAMETERS: c terminus: native
Overview of reported protein stability index across a group of variants:
I only need the number, thanks.

H5S : 2.98

**Q:** I'd like to know its protein stability index. The variant in question is `S23H`
**A:** 4.09

**Q:** Let us now turn to `S17D`
**A:** 3.22

**Q:** Lookup `G12A`
**A:** 2.61

**Q:** Request: `D8S`
**A:** 2.45

**Q:** `R22G` , same question.
**A:** 3.98

**Q:** Try the variant `I3F`
**A:** 2.83

**Q:** Record: `Y21M`
**A:** 2.17

**Q:** And `I10R` ?
**A:** 4.3

**Q:** Field entry: `I7Q`
**A:** 4.42

**Q:** Now consider `S9F` and answer again.
**A:** 1.75

**Q:** Let us now turn to `L11D`
**A:** 4.72

**Q:** # iterate: `Y21P`
**A:** 5.12

**Q:** Would you kindly repeat that for `G12R` ?
**A:** 2.73

**Q:** Please give the result for `I4L` too.
**A:** 2.56

Data provenance: the supplement of paper PMC10567573
